Give measured self-splicing fitness (ln) for each item. Keep answers brief.
Assay info: self-splicing fitness, log relative to wild type (ln ratio); higher = more splicing; Tetrahymena group I intron in knt gene, E. coli kanamycin selection, DiMSum; sequences stand for … in CUCUCU…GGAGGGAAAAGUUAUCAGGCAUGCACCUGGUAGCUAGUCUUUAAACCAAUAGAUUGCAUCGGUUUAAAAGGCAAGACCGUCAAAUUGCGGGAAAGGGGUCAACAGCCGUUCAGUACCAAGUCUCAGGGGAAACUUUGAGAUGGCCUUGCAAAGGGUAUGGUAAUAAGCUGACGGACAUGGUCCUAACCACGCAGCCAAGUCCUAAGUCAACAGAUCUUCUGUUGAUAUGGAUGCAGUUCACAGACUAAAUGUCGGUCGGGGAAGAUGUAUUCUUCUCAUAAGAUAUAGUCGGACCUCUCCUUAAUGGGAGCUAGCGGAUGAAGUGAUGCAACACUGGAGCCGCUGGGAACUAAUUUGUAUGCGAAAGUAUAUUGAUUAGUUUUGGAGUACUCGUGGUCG;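 further: selection with 25 µg/mL kanamycin versus none on LB agar overnight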
Measurement parameters: 30 °C
Lab note: record just the number, no unit beside it.

Specify reported self-splicing fitness (ln) for the sequence shown: `GAAGAGCAAUAUUACGUUCA` -1.33

Tell us which self-splicing fitness (ln) value is on record for `GGUGAGCAAUAUUACGAUCG` -0.341

Output self-splicing fitness (ln) of `CCCUAGCAAUAUUACGUUUU` -3.59

Please indicate self-splicing fitness (ln) recorded for `GAGAAGCAAUAUUACGCGGC` -3.03

Look up and report measured self-splicing fitness (ln) for this entry: `GAGCAGCAAUAUUACGAUGA` -2.62

Output self-splicing fitness (ln) of `GGACAGCAAUAUUACGCAGU` -4.28

Identify measured self-splicing fitness (ln) associated with `AACUAGCAAUAUUACGGUUG` -1.36

Please look at this sequence and report its self-splicing fitness (ln): `GAAGAGCAAUAUUACGAGUU` -2.61

// fetch self-splicing fitness (ln) given entry `UUUCAGCAAUAUUACGACAU` -1.41

// fetch self-splicing fitness (ln) given entry `CCGAAGCAAUAUUACGUGUC` -3.49

Note self-splicing fitness (ln) for the sequence shown: `GCCGAGCAAUAUUACGAGUC` -1.86

Using the record for `UGCUAGCAAUAUUACGUGCA` , state its measured self-splicing fitness (ln). -2.54

Tell us which self-splicing fitness (ln) value is on record for `ACGGAGCAAUAUUACGCUCU` -3.26

Quick one: give measured self-splicing fitness (ln) for `CCAUAGCAAUAUUACGGCAG` -2.02

Read the entry `GAUUAGCAAUAUUACGGUUC` and write its reported self-splicing fitness (ln). -3.38

Give reported self-splicing fitness (ln) value for `GUUCAGCAAUAUUACGAGUG` -1.59

Indicate its recorded self-splicing fitness (ln); the sequence in question is `GGGUAGCAAUAUUACGUGCU` -0.698

Check the records and state self-splicing fitness (ln) for `GAGAAGCAAUAUUACGCAGG` -2.26

Answer with the recorded self-splicing fitness (ln) of `CGCCAGCAAUAUUACGAGGA` only. -3.07

Return the recorded self-splicing fitness (ln) value; entry: `UGCUAGCAAUAUUACGAAAA` -2.16

Give me measured self-splicing fitness (ln), please, for this sequence: `UUAUAGCAAUAUUACGUCGA` -0.277

Give self-splicing fitness (ln) for `CCUUAGCAAUAUUACGUUCU` -4.18

Recall and state the measured self-splicing fitness (ln) for `CUCAAGCAAUAUUACGGAUC` . -3.98

State, in one line, measured self-splicing fitness (ln) of `UGUCAGCAAUAUUACGGGUU` -2.31

Return reported self-splicing fitness (ln). Input sequence: `GCAAAGCAAUAUUACGUCAG` -3.89

For the sequence `AAUUAGCAAUAUUACGCCCU` , report self-splicing fitness (ln). 0.0273

Identify measured self-splicing fitness (ln) corresponding to `GGUGAGCAAUAUUACGAGUC` -1.67

Specify measured self-splicing fitness (ln) for `GACGAGCAAUAUUACGAACG` . -0.929

For `CUUCAGCAAUAUUACGCUGA` , write its self-splicing fitness (ln). -2.41

For the sequence `GAGUAGCAAUAUUACGCUUG` , report self-splicing fitness (ln). -0.859

// Input: `AAUCAGCAAUAUUACGUGCA` . Output its self-splicing fitness (ln) only. -0.181

// Input: `GCGCAGCAAUAUUACGGUGA` . Output its self-splicing fitness (ln) only. -0.545

Indicate the recorded self-splicing fitness (ln) value for this sequence: `UCACAGCAAUAUUACGUCAG` -1.59

Look up self-splicing fitness (ln) of `AACAAGCAAUAUUACGGCCG` and report it. -0.739

Give a short answer stating reported self-splicing fitness (ln) for `GAAGAGCAAUAUUACGGGAG` . -3.15

Tell me self-splicing fitness (ln) reported for `CAUAAGCAAUAUUACGGAUU` -3.15

Assign self-splicing fitness (ln) to the following record: `GGUAAGCAAUAUUACGCCAA` -2.07

Indicate the recorded self-splicing fitness (ln) value for this sequence: `CUCAAGCAAUAUUACGCGAC` -1.93

Name the recorded self-splicing fitness (ln) of the item `UGAUAGCAAUAUUACGCGAC` in your answer. -3.55

// Input: `CUCAAGCAAUAUUACGUAGU` . Output its self-splicing fitness (ln) only. -3.43

Using the record for `AAAGAGCAAUAUUACGCUGU` , state its measured self-splicing fitness (ln). -3.2

Look up and report measured self-splicing fitness (ln) for this entry: `AUCUAGCAAUAUUACGUGUA` -2.44

Identify measured self-splicing fitness (ln) associated with `CCCGAGCAAUAUUACGAAAU` -3.65

Give reported self-splicing fitness (ln) value for `CUUGAGCAAUAUUACGCAAG` -2.37

Given `CUCCAGCAAUAUUACGAUGG` , respond with its self-splicing fitness (ln). -4.58

Could you please provide reported self-splicing fitness (ln) for `GAAUAGCAAUAUUACGCAAG` ? Thanks! -2.44

Specify self-splicing fitness (ln) for `ACUGAGCAAUAUUACGGCCG` and stop. -1.89

Specify self-splicing fitness (ln) for `UUCUAGCAAUAUUACGAUAC` and stop. -2.08

Give self-splicing fitness (ln) for `GGCGAGCAAUAUUACGCUGA` -1.82

Give the reported value of self-splicing fitness (ln) for this record: `GUCUAGCAAUAUUACGCGCU` -1.29

Give self-splicing fitness (ln) for the following sequence: `AAAAAGCAAUAUUACGAUUC` -0.58

Query self-splicing fitness (ln) for `CAACAGCAAUAUUACGUCUG` -1.89

Annotate the sequence `GAACAGCAAUAUUACGGAAU` with its measured self-splicing fitness (ln). -1.6

Item `AGUUAGCAAUAUUACGACUG` : provide self-splicing fitness (ln) -0.637

Indicate the recorded self-splicing fitness (ln) value for this sequence: `CUUGAGCAAUAUUACGAUUG` -2.49

Note down self-splicing fitness (ln) recorded for `AUUGAGCAAUAUUACGCUUU` -2.92

Note down self-splicing fitness (ln) recorded for `GGUUAGCAAUAUUACGUUAG` -2.34

Specify reported self-splicing fitness (ln) for the sequence shown: `GAUAAGCAAUAUUACGAUAU` -1.13

Supply self-splicing fitness (ln) value. Item: `UCGAAGCAAUAUUACGGUGA` -0.813

Return self-splicing fitness (ln) (reported value) for this sequence: `GGAUAGCAAUAUUACGCAGC` -3.14

Origin of values: the supplement of paper PMC7877785
